test: HUVEC growth inhibition – cell-based, human, primary screen (AID 575); conditions: HUVEC proliferation, CellTiter-Glo luminescence, 72 h; at 10 µM; active compounds read low
Mark condition met only when viability stays strictly below 90%. Values equal to the cut-off are condition not met.

MOLECULE	LABEL CLASS
Nc1ccc2[nH]ncc2c1	condition met
CS(=O)(=O)Nc1ccc(C(=O)NCCc2ccccc2)cc1	condition not met
Cc1cc(C)c(S(=O)(=O)Nc2cccnc2)c(C)c1	condition not met

Task: Is 90% strictly greater than the molecule's reported viability? molecule: `Cc1cc(C)n(S(=O)(=O)Cc2ccccc2)n1`
Output: condition not met

Task: Please give the result for COCCn1nnnc1C(c1cccs1)N1CCN(c2cc(C)ccc2C)CC1 (stereo not drawn) too.
Output: condition met

Task: Please give the result for `CN1CCC(=C2c3ccccc3CC(=O)c3sccc32)CC1` too.
Output: condition met

Task: Please give the result for Cn1c(=O)c2[nH]c(NCC3CCCO3)nc2n(-c2ccccc2)c1=O (stereo not drawn) too.
Output: condition not met

Task: Please give the result for CCCCCC1CC(CC(=O)O)C(=O)O1 (stereo not drawn) too.
Output: condition met

Task: Please give the result for `COc1cccc(N2CCN(CC(=O)NCc3cccs3)CC2)c1` too.
Output: condition not met

Task: Please give the result for `CCOC(=O)C1=C(c2ccccc2)N2CCN=C2S1` too.
Output: condition not met

Task: Please give the result for COc1ccc(CN2CC(C(=O)NCCCOC(C)C)CC2=O)cc1 (stereo not drawn) too.
Output: condition not met

Task: Please give the result for `CC(C)OC(=O)CSc1nc2cccnc2n1C1CCCCC1` too.
Output: condition not met

Task: Please give the result for `COc1ccc(CC(=O)Nc2ccc(-c3nnc(-c4ccc(C)cc4)o3)cc2)cc1` too.
Output: condition met

Task: Please give the result for `CCOC(=O)N1CCN(c2c(N3CCN(c4ccccc4OC)CC3)c(=O)c2=O)CC1` too.
Output: condition not met

Task: Please give the result for COC(=O)c1ccc(N2C(=O)CC(N3CCN(C(=O)c4ccco4)CC3)C2=O)cc1 (stereo not drawn) too.
Output: condition met
